Data credit: patent US20240043504A1

target.system: SARS-COV-2 RBD extracellular domain expressed with a C-terminal mouse IgG2a (SARS-CoV-2)
assay.notes: SPR Biacore, mAb captured via anti-hFc, 25 C
// Condition not met strictly below 8 h in t½; Condition met otherwise

binder	category.label
mAb10954 (antibody, V domains shown) VH: EVQLVESGGGLVQPGGSLRLSCAASGITVSSNYMSWVRQAPGKGLEWVSLIYSGGSTYYADSVKGRFTISRDNSKNTLYLQMNSLRVEDTAVYYCARDHGMAAAGYNYWGQGTLVTVSS VL: DIQMTQSPSSLSASVGDRVTITCQASQDINKYLNWYQQKPGKAPKLLIYDASNLETGVPSRFSGSGSGTDFTFTINSLQPEDFATYFCQQYDNLPPAFGQGTKVEIKR	Condition not met
mAb10957 (antibody, V domains shown) VH: EVQLVESGGGLVQPGGSLRLSCAASGVTVSSNYMSWVRQAPGKGLEWVSVIYSGGSTFYADSVKGRFTISRDNSKNTLFLQMNSLRIEDTAVYYCARDLGPYGMDVWGQGTTVTVSS VL: DIQLTQSPSFLSASVGDRVTITCRASQGISSYLAWYQQKPGKAPKLLIYAASTLQSGVPSRFSGSGSGTQFILTISSLQPEDFATYYCQQLNSYPGFTFGPGTKVDIKR	Condition not met
mAb10967 (antibody, V domains shown) VH: EVQLVESGGGLVQPGGSLRLSCAASGFTVSSNYMSWVRQAPGKGLEWVSVIYPGGSTFYADSVKGRFTISRDNSKNTLYLQMNSLRAEDTAVYYCARDQRDFAWGQGTLVTVSS VL: DIQMTQSPSSLSASVGDRVTITCQASQDISNYLNWYQQKPGKAPKLLIYDASNLETGVPSRFSGSGSGTDFTFTISGLQPEDIATYYCQQYDNLPPTFGQGTRLEIKR	Condition met
mAb10921 (antibody, V domains shown) VH: EVQLVESGGGLVQPGGSLRLSCAASGITVSSNYMSWVRQAPGKGLEWVSVIYSGGSTFYADSVKGRFTISRHNSKNTLYLQMNSLRAEDTAVYYCARERNFDAFDIWGQGTMVTVSS VL: DIQMTQSPSSVSASVGDRVTITCRASQGISSWLAWYQQKPGKAPKLLIYAASSLQSGVPSRFSGSGSGTDFTLTISSLQPEDFATYYCQQANSFPLFTFGPGTKVDIKR	Condition not met
